- Method: 4-week study in dogs
- Assay type: in vivo, dog
- Condition label: dog, in vivo
Metric: NOAEL at 4 weeks (mg/kg/day)
Record the value in mg/kg/day, omitting the unit from your answer.

[Q] Endpoint output: NOAEL at 4 weeks of N#Cc1ccc(-c2cnc3ccc(-c4ccc(C(=O)N5CCOCC5)cc4)cn23)cc1 [ETC‐206] . Value?
[A] 3

* * *

- Method: First-in-human pharmacokinetics in healthy volunteers
- Type: in vivo
- Condition label: human, plasma, po, 10 mg, Vd/F, healthy volunteers, oral 10 mg single dose FASTED (N = 16), [SD]
Metric: Vd/F (L)
The reply should contain only the number, in L.

[Q] Report Vd/F for `N#Cc1ccc(-c2cnc3ccc(-c4ccc(C(=O)N5CCOCC5)cc4)cn23)cc1` please.
[A] 13.9

* * *

- Method: 4-week study in dogs
- Format: in vivo, dog
- Condition label: dog, plasma, 3 mg/kg/day
Metric: Cmax (ng/mL)
Give just the numeric value; ng/mL need not be written.

[Q] I have this compound here, `N#Cc1ccc(-c2cnc3ccc(-c4ccc(C(=O)N5CCOCC5)cc4)cn23)cc1` , and I need its recorded Cmax.
[A] 935

* * *

- Method: First-in-human pharmacokinetics in healthy volunteers
- Type: in vivo
- Condition label: human, plasma, po, 10 mg, Mean Cmax, healthy volunteers, oral 10 mg single dose FASTED (N = 16), [SD]
Metric: Cmax

[Q] Would you kindly share the measured Cmax for `N#Cc1ccc(-c2cnc3ccc(-c4ccc(C(=O)N5CCOCC5)cc4)cn23)cc1` ?
[A] 927 ng/mL

* * *

- Method: First-in-human pharmacokinetics in healthy volunteers
- Type: in vivo
- Condition label: human, plasma, po, 10 mg, Mean AUC0−inf, healthy volunteers, oral 10 mg single dose FASTED (N = 16), [SD]
Metric: AUC(0-inf) (ng·h/mL)
Supply the numeric figure in ng·h/mL, leaving out any unit text.

[Q] Can you look up the measured AUC(0-inf) of `N#Cc1ccc(-c2cnc3ccc(-c4ccc(C(=O)N5CCOCC5)cc4)cn23)cc1` for me?
[A] 24400

* * *

- Method: 4-week study in dogs
- Assay type: in vivo, dog
- Condition label: dog, plasma, 3 mg/kg/day
Metric: AUC(0-t) (ng·h/mL)
Write down the numeric answer in ng·h/mL and omit the unit.

[Q] Name the recorded AUC(0-t) for `N#Cc1ccc(-c2cnc3ccc(-c4ccc(C(=O)N5CCOCC5)cc4)cn23)cc1` .
[A] 7230

* * *

- Method: First-in-human pharmacokinetics in healthy volunteers
- Type: in vivo
- Condition label: human, plasma, po, 20 mg, Mean AUC0−t, healthy volunteers, oral 20 mg single dose FASTED (N = 14), [SD]
Metric: AUC(0-t) (ng·h/mL)
# output: bare number, implied unit ng·h/mL

[Q] Look up AUC(0-t) for this compound: `N#Cc1ccc(-c2cnc3ccc(-c4ccc(C(=O)N5CCOCC5)cc4)cn23)cc1`
[A] 57800

* * *

- Method: First-in-human pharmacokinetics in healthy volunteers
- Format: in vivo
- Condition label: human, plasma, po, 10 mg, Mean AUC0−t, healthy volunteers, oral 10 mg single dose FASTED (N = 16), [SD]
Metric: AUC(0-t) (ng·h/mL)
Report only the number, with the unit ng·h/mL understood.

[Q] # lookup: AUC(0-t) of `N#Cc1ccc(-c2cnc3ccc(-c4ccc(C(=O)N5CCOCC5)cc4)cn23)cc1`
[A] 21900

* * *

- Method: First-in-human pharmacokinetics in healthy volunteers
- Type: in vivo
- Condition label: human, plasma, po, 10 mg, Mean AUC0−inf, healthy volunteers, oral 10 mg single dose FED (N = 9), [SD]
Metric: AUC(0-inf) (µg·h/mL)
Please reply with the bare figure in µg·h/mL and do not write the unit itself.

[Q] // AUC(0-inf) lookup, key: `N#Cc1ccc(-c2cnc3ccc(-c4ccc(C(=O)N5CCOCC5)cc4)cn23)cc1`
[A] 30

* * *

- Method: First-in-human pharmacokinetics in healthy volunteers
- Assay type: in vivo
- Condition label: human, plasma, po, 10 mg, Mean t1/2, healthy volunteers, oral 10 mg single dose FASTED (N = 16), [SD]
Metric: half-life

[Q] Which half-life is reported for this compound? `N#Cc1ccc(-c2cnc3ccc(-c4ccc(C(=O)N5CCOCC5)cc4)cn23)cc1`
[A] ~23 h

* * *

- Method: First-in-human pharmacokinetics in healthy volunteers
- Assay type: in vivo
- Condition label: human, plasma, po, 10 mg, Mean AUC0−t, healthy volunteers, oral 10 mg single dose FED (N = 9), [SD]
Metric: AUC(0-t) (ng·h/mL)
Write the answer as a number in ng·h/mL, unit excluded.

[Q] Could you tell me which AUC(0-t) is on file for `N#Cc1ccc(-c2cnc3ccc(-c4ccc(C(=O)N5CCOCC5)cc4)cn23)cc1` ?
[A] 28700

* * *

- Method: First-in-human pharmacokinetics in healthy volunteers
- Type: in vivo
- Condition label: human, plasma, po, 20 mg, Vd/F, healthy volunteers, oral 20 mg single dose FASTED (N = 14), [SD]
Metric: Vd/F (L)
Numeric only. Scale: L

[Q] Reported Vd/F for `N#Cc1ccc(-c2cnc3ccc(-c4ccc(C(=O)N5CCOCC5)cc4)cn23)cc1` : what is it?
[A] 12.5
